Subject Of Test: SMARCA2 (Homo sapiens, UniProt P51531)
Construct: endogenous in cells
Sequence (P51531 whole entry): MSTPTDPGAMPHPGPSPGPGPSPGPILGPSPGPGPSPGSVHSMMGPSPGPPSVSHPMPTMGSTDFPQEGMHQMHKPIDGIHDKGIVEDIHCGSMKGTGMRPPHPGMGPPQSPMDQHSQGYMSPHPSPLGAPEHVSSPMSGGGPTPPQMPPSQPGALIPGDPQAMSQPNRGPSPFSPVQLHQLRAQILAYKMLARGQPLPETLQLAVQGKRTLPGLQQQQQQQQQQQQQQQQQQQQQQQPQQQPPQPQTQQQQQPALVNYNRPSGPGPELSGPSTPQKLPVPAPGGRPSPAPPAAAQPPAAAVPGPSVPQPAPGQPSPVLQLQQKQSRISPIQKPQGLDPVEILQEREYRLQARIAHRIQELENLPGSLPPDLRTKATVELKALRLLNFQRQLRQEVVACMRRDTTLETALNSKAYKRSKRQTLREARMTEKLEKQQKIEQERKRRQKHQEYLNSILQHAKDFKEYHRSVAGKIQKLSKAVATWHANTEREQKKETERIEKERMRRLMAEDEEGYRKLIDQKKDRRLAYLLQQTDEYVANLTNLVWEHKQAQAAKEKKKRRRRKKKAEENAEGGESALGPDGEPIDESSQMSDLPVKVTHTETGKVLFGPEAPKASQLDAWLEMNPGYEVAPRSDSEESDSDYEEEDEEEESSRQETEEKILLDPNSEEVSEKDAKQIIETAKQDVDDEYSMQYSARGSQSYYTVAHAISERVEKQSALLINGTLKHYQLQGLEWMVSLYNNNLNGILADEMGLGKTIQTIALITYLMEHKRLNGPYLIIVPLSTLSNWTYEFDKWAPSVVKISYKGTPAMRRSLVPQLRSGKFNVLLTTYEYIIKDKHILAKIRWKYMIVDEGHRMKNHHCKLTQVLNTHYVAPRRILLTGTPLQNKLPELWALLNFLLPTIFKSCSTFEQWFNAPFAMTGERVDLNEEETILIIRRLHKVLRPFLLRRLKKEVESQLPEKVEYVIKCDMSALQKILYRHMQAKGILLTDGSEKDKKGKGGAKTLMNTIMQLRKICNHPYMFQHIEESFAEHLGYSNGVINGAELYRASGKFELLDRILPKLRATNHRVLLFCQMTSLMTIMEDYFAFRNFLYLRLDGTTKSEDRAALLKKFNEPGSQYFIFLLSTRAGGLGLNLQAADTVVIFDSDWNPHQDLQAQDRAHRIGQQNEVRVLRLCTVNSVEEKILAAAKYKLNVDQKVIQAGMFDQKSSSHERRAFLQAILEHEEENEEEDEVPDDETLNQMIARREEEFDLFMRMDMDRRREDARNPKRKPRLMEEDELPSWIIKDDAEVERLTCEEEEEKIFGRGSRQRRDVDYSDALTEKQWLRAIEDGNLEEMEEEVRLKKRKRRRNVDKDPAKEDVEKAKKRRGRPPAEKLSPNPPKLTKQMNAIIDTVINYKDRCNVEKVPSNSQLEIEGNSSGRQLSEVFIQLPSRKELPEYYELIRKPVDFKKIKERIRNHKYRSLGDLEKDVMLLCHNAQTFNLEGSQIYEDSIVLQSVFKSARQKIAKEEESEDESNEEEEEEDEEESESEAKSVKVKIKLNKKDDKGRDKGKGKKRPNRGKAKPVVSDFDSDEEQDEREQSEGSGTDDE
Method Notes: SMARCA2 HiBiT degradation assay (cellular)
Type: cell-based
Cond: A549, Emax = amount of residual protein remaining in the cell following compound treatment
Measured Attribute: Emax (%)

Examples with answers:
Readout Emax for Cc1ncsc1-c1ccc(CNC(=O)[C@@H]2C[C@@H](O)CN2C(=O)[C@@H](NC(=O)CCCCCCCCC(=O)N2CCN(c3cc(-c4ccccc4O)nnc3N)CC2)C(C)(C)C)cc1 , test system SMARCA2 (Homo sapiens, UniProt P51531), was 52

Entry Cc1ncsc1-c1ccc([C@H](C)NC(=O)[C@@H]2C[C@@H](O)CN2C(=O)[C@@H](NC(=O)CCCCCCCCCCC(=O)N2CCN(CCOc3cccc(N4CCCC(Oc5cc(-c6ccccc6O)nnc5N)C4)c3)CC2)C(C)(C)C)cc1 (mixture of isomers) , SMARCA2 (Homo sapiens, UniProt P51531) data, Emax value: 35

// compound Cc1ncsc1-c1ccc([C@H](C)NC(=O)[C@@H]2C[C@@H](O)CN2C(=O)[C@@H](NC(=O)CCCCCC(=O)N2CCN(C(=O)c3ccc(OC4CN(c5cc(-c6ccccc6O)nnc5N)C4)cc3)CC2)C(C)(C)C)cc1 , assay SMARCA2 (Homo sapiens, UniProt P51531), Emax value: 60

The reported Emax value, SMARCA2 (Homo sapiens, UniProt P51531), for Cc1ncsc1-c1ccc(CNC(=O)[C@@H]2C[C@@H](O)CN2C(=O)[C@@H](NC(=O)CCCCCCCCC(=O)NC(COc2cc(-c3ccccc3O)nnc2N)c2ccccc2)C(C)(C)C)cc1 (mixture of isomers) reads 48

Case Cc1ncsc1-c1ccc(CNC(=O)[C@@H]2C[C@@H](O)CN2C(=O)[C@@H](NC(=O)CCCCCC(=O)N2CC(Oc3cc(-c4ccccc4O)nnc3N)CC(c3ccccc3)C2)C(C)(C)C)cc1 (mixture of isomers) , SMARCA2 (Homo sapiens, UniProt P51531), Emax recorded as 49

P = Cc1ncsc1-c1ccc([C@H](C)NC(=O)[C@@H]2C[C@@H](O)CN2C(=O)[C@@H](NC(=O)CCC(=O)N2CCN(CCOc3cccc(N4CCCC(Oc5cc(-c6ccccc6O)nnc5N)C4)c3)CC2)C(C)(C)C)cc1 (mixture of isomers)
Q = Cc1ncsc1-c1ccc([C@H](C)NC(=O)[C@@H]2C[C@@H](O)CN2C(=O)[C@@H](NC(=O)CCCCCC(=O)N2CCN(CCOc3ccc(N4CCCC(Oc5cc(-c6ccccc6O)nnc5N)C4)cc3)CC2)C(C)(C)C)cc1 (mixture of isomers)
R = Cc1ncsc1-c1ccc(CNC(=O)[C@@H]2C[C@@H](O)CN2C(=O)[C@@H](NC(=O)CCCCCCCCC(=O)N2CCN(CCOc3cccc(C#Cc4cc(-c5ccccc5O)nnc4N)c3)CC2)C(C)(C)C)cc1
Order field: Emax | Direction: descending (largest first) Labels, requested order.
P, R, Q
(P: 60%, R: 39%, Q: 24%)

A = Cc1ncsc1-c1ccc([C@H](C)NC(=O)[C@@H]2C[C@@H](O)CN2C(=O)[C@@H](NC(=O)CCC(=O)N2CCOC3(CCN(c4cc(-c5ccccc5O)nnc4N)CC3)C2)C(C)(C)C)cc1
B = Cc1ncsc1-c1ccc([C@H](C)NC(=O)[C@@H]2C[C@@H](O)CN2C(=O)[C@@H](NC(=O)CCCCCC(=O)N2CCN(c3cccc(N4CCCC(Oc5cc(-c6ccccc6O)nnc5N)C4)c3)CC2)C(C)(C)C)cc1 (mixture of isomers)
C = Cc1ncsc1-c1ccc([C@H](C)NC(=O)[C@@H]2C[C@@H](O)CN2C(=O)[C@@H](NC(=O)CCCCCCCCC(=O)N2CCN(c3ccc(N4CCCC(Oc5cc(-c6ccccc6O)nnc5N)C4)cc3)CC2)C(C)(C)C)cc1 (mixture of isomers)
Order each entry by recorded Emax, climbing from the minimum. # respond with the labels, arranged in the requested order
C, B, A
(C: 22%, B: 34%, A: 71%)

====

Subject Of Test: SMARCA2 (Homo sapiens, UniProt P51531)
Construct: endogenous in cells
Method Notes: SMARCA2 HiBiT degradation assay (cellular)
Type: cell-based
Cond: A549, Emax = amount of residual protein remaining in the cell following compound treatment
Measured Attribute: Emax (%)

Some solved entries appear below for comparison.
# Emax (compound: Cc1ncsc1-c1ccc([C@H](C)NC(=O)[C@@H]2C[C@@H](O)CN2C(=O)[C@@H](NC(=O)CCCCCCCCC(=O)N2CCN(c3ccc(CN4CCCC(Oc5cc(-c6ccccc6O)nnc5N)C4)cc3)CC2)C(C)(C)C)cc1 (mixture of isomers) ) is 63

get_value(item= Cc1ncsc1-c1ccc([C@H](C)NC(=O)[C@@H]2C[C@@H](O)CN2C(=O)[C@@H](NC(=O)CCCCCCCCCC(=O)N2CCN(CCOc3cccc(N4C5CCC4CN(c4cc(-c6ccccc6O)nnc4N)C5)c3)CC2)C(C)C)cc1 , readout=Emax) returns 20

So, Cc1ncsc1-c1ccc(CNC(=O)[C@@H]2C[C@@H](O)CN2C(=O)[C@@H](NC(=O)CCCCCCCN2CCN(C(=O)CN(C)Cc3ccc(-c4cc(-c5ccccc5O)nnc4N)cc3)CC2)C(C)(C)C)cc1 ? Its Emax was 51

1 = Cc1ncsc1-c1ccc([C@H](C)NC(=O)[C@@H]2C[C@@H](O)CN2C(=O)[C@@H](NC(=O)CCC(=O)N2CCN(CCOc3cccc(CCOc4cc(-c5ccccc5O)nnc4N)c3)CC2)C(C)(C)C)cc1
2 = Cc1ncsc1-c1ccc(CNC(=O)[C@@H]2C[C@@H](O)CN2C(=O)C(NC(=O)CCCCCCC(=O)N2CCC3(CC2)CCN(c2cc(-c4ccccc4O)nnc2N)CC3)C(C)(C)C)cc1 (stereo in doubt)
// compare: 1 vs 2 , metric Emax, want the smaller Please reply using the label of the selected record.
1
(1: 29%, 2: 54%)

P = Cc1ncsc1-c1ccc([C@H](C)NC(=O)[C@@H]2C[C@@H](O)CN2C(=O)[C@@H](NC(=O)CCCCCCCCCCCCC(=O)N2CCN(CCOc3cccc(CCOc4cc(-c5ccccc5O)nnc4N)c3)CC2)C(C)(C)C)cc1
Q = Cc1ncsc1-c1ccc([C@H](C)NC(=O)[C@@H]2C[C@@H](O)CN2C(=O)[C@@H](NC(=O)CCCCCC(=O)N2CCN(CCOc3cccc(CCOc4cc(-c5ccccc5O)nnc4N)c3)CC2)C(C)(C)C)cc1
Pick the one with the larger Emax: P vs Q State the label of the item chosen.
Q

1 = Cc1ncsc1-c1ccc([C@H](C)NC(=O)[C@@H]2C[C@@H](O)CN2C(=O)[C@@H](NC(=O)CCCCCCCCCCCCC(=O)N2CCN(CCOc3ccc(N4CCCC(Oc5cc(-c6ccccc6O)nnc5N)C4)cc3)CC2)C(C)(C)C)cc1 (mixture of isomers)
2 = Cc1ncsc1-c1ccc([C@H](C)NC(=O)[C@@H]2C[C@@H](O)CN2C(=O)[C@@H](NC(=O)CCCCCCCCC(=O)N2CCN(CCOc3cccc(N4CCCC(Oc5cc(-c6ccccc6O)nnc5N)C4)c3)CC2)C(C)(C)C)cc1 (mixture of isomers)
Returns: the argument ( 1 or 2 ) having the larger Emax. Respond with the label that goes with your answer.
2

A = Cc1ncsc1-c1ccc([C@H](C)NC(=O)[C@@H]2C[C@@H](O)CN2C(=O)[C@@H](NC(=O)CCCCCCCCCCCCC(=O)N2CCOC3(CCN(c4cc(-c5ccccc5O)nnc4N)CC3)C2)C(C)(C)C)cc1
B = Cc1ncsc1-c1ccc([C@H](C)NC(=O)[C@@H]2C[C@@H](O)CN2C(=O)[C@@H](NC(=O)CCC(=O)N2CCN(c3ccc(CN4CCCC(Oc5cc(-c6ccccc6O)nnc5N)C4)cc3)CC2)C(C)(C)C)cc1 (mixture of isomers)
C = Cc1ncsc1-c1ccc([C@H](C)NC(=O)[C@@H]2C[C@@H](O)CN2C(=O)[C@@H](NC(=O)CCCCCCCCCCC(=O)N2CCOC3(CCN(c4cc(-c5ccccc5O)nnc4N)CC3)C2)C(C)(C)C)cc1
I would appreciate it if you could sort these 3 compounds by Emax, starting from the smallest number. Reply: labels, ordered per the request.
C, A, B
(C: 21%, A: 33%, B: 48%)

====

Subject Of Test: SMARCA2 (Homo sapiens)
Construct: endogenous in cells
Method Notes: SMARCA2 HiBiT degradation assay (cellular)
Assay type: cell-based
Cond: A549, Emax = amount of residual protein remaining in the cell following compound treatment
Measured Attribute: Emax (%)

# annotated cases, reported Emax shown
Value of Emax reported for the molecule Cc1ncsc1-c1ccc(CNC(=O)[C@@H]2C[C@@H](O)CN2C(=O)[C@@H](NC(=O)CCCCCCCCCC(=O)N2CCN(Cc3cccc(N4C5CCC4CN(c4cc(-c6ccccc6N)nnc4N)C5)c3)CC2)C(C)(C)C)cc1 is 59

Cc1ncsc1-c1ccc([C@H](C)NC(=O)[C@@H]2C[C@@H](O)CN2C(=O)[C@@H](NC(=O)CCCCCCCCCCC(=O)N(C)CC(COc2cc(-c3ccccc3O)nnc2N)c2ccccc2)C(C)(C)C)cc1 (mixture of isomers) has a reported Emax of 27

Emax for Cc1ncsc1-c1ccc([C@H](C)NC(=O)[C@@H]2C[C@@H](O)CN2C(=O)[C@@H](NC(=O)CCCCCCCCC(=O)N2CCN(CCOc3ccc(N4CCCC(Oc5cc(-c6ccccc6O)nnc5N)C4)cc3)CC2)C(C)(C)C)cc1 (mixture of isomers) is 20

get_value(item= Cc1ncsc1-c1ccc(CNC(=O)[C@@H]2C[C@@H](O)CN2C(=O)[C@@H](NC(=O)CCCCCC(=O)NC(COc2cc(-c3ccccc3O)nnc2N)c2ccccc2)C(C)(C)C)cc1 (mixture of isomers) , readout=Emax) returns 54

1 = Cc1ncsc1-c1ccc(CNC(=O)[C@@H]2C[C@@H](O)CN2C(=O)[C@@H](NC(=O)CCCCCCCCC(=O)N2CCOC3(CCN(c4cc(-c5ccccc5O)nnc4N)CC3)C2)C(C)(C)C)cc1
2 = Cc1ncsc1-c1ccc(CNC(=O)[C@@H]2C[C@@H](O)CN2C(=O)[C@@H](NC(=O)CCCCCCCCC(=O)N2CCN(Cc3cccc(-c4cc(-c5ccccc5O)nnc4N)c3F)CC2)C(C)(C)C)cc1
From the recorded data, which exceeds the other in Emax: 1 or 2 ? Please indicate the selected item by its label.
2
